Origin of measurements: patent US20210206841A1

- test-target: T1, native IHFNTHI (integration host factor of nontypeable Haemophilus influenzae) (nontypeable Haemophilus influenzae …, UniProt P43723 1-96; P43724 1-94)
- T1 construct: also called NTHI IHF
- T1 sequence 1: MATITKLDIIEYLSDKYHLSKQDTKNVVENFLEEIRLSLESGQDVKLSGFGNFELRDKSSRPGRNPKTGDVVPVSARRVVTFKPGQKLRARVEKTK
- T1 sequence 2: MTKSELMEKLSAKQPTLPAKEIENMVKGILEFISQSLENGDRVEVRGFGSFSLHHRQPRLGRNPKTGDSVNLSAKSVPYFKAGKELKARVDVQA
- experiment-summary: SPR Biacore 3000, IHFNTHI immobilized, HuMab as analyte
measured-parameter: kon (M⁻¹ s⁻¹)
Please state the figure in M⁻¹ s⁻¹; there is no need to write the unit.

In one line, give reported kon of the entry humanized anti-tip monoclonal antibody, heavy chain SEQ ID NO: 3 and light chain SEQ ID NO: 7 (antibody, V domains shown, also called H10212 (1F8.F1 Humanized HC3) + L10210 (1F8.F1 Humanized LC1)) VH: EVKLVQSGAEVKKPGASVKVSCKASGFTFRTYAMSWVRQAPGQRLEWVATIGSDRRHTYYPDKFQGRVTITRDNAKNTLYMELSSLRSEDTAVYYCVGPYDGYYGEFDYWGQGTLVTVSS VL: DVVMTQSPLSLPVTLGQPASISCRSSQSLLDSDGKTFLNWLQQRPGQSPRRLIYLVSKLDSGVPDRFSGSGSGTDFTLKISRVEAEDVGVYYCWQGTHFPYTFGQGTKLEIKR .
140

Using known records, supply kon for humanized anti-tip monoclonal antibody, heavy chain SEQ ID NO: 1 and light chain SEQ ID NO: 7 (antibody, V domains shown, also called HuTipMab; TP-21949) VH: EVKLVESGGGLVQPGGSLRLSCAASGFTFRTYAMSWVRQAPGKGLEWVATIGSDRRHTYYPDSVKGRFTISRDNAKNTLYLQMNSLRAEDTAVYYCVGPYDGYYGEFDYWGQGTLVTVSS VL: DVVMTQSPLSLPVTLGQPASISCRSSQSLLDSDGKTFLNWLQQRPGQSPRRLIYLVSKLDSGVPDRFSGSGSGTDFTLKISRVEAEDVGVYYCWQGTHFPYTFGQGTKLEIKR
5400
